tested on: MOLT-4 leukemia; assay: NCI tumour cell line growth inhibition, 48 h
PROPERTY_NAME: TGI

- COMPOUND: "CCOC(=O)c1ccc(NC(=O)Nc2nncs2)cc1"
  ASSAY_TARGET: "MOLT-4 leukemia"
  TGI: "> 48.7 µM"

Requested field: TGI. Item: O=C(Nc1ccc2[nH]nc(-c3ccncc3)c2c1)[C@@H]1CCN(CC(=O)N2CCN(c3ccc(-c4ncccn4)cc3)CC2)C1 > 80.6 µM

Fill in: TGI of O=c1[nH]c2nnc(COc3ccc(Cl)cc3Cl)n2nc1Cc1ccccc1 is ___ > 100 µM

// returns reported TGI for input COC(=O)C(N)CCCC(N)C(=O)NC(C)C(=O)NC(CCC(=O)NCCNCCNc1c2ccccc2nc2cccc([N+](=O)[O-])c12)C(N)=O (centres undefined) > 100 µM

----------
tested on: SF-295 CNS; test: NCI tumour cell line growth inhibition, 48 h
PROPERTY_NAME: TGI

A selection of reference data follows.
- COMPOUND: "COc1ccc(C2=C(Cl)c3cc(OC)c(OC)cc3C2OC)cc1OC (configuration not stated)"
  RESULT: "> 100 µM"
- COMPOUND: "CC(C)=CCC[C@]1(C)C=Cc2c(O)c3c(c(CC=C(C)C)c2O1)O[C@]12C(=C[C@@H]4CC1C(C)(C)O[C@@]2(C/C=C(/C)C(=O)O)C4=O)C3=O"
  RESULT: "10 µM"

Entry C=C=C(CC1CCCCC1=O)S(=O)(=O)c1ccccc1 (configuration not stated) : reported TGI = ? > 10 µM

Given the compound CN(C)CCCc1cccc2[nH]c3c(c12)CN(C)CC3 , what is its reported TGI? > 100 µM

Please look up its TGI: N#Cc1c(-c2ccc(Cl)c(Cl)c2)c(-c2ccc(Cl)c(Cl)c2)nn(CC(=O)O)c1=O > 100 µM

Item S=c1[nH]nc(CNc2ccc(-c3n[nH]c(=S)n3-c3ccc(Cl)cc3)cc2)n1-c1ccc(Cl)cc1 has what recorded TGI? 81.2 µM

Entry COc1ccccc1NC(=S)NN=C(C)c1cccc(C(C)=NNC(=S)Nc2ccccc2OC)n1 : reported TGI = ? > 100 µM

----------
Quick list: TGI per entry.
test system: SNB-75 CNS; assay: NCI tumour cell line growth inhibition, 48 h
Just the number please, in µM, no unit attached.

Guide cases for TGI, answers given:
- COMPOUND: "CC(C)=CCC[C@]1(C)C=Cc2c(O)c3c(c(CC=C(C)C)c2O1)O[C@]12C(=C[C@@H]4CC1C(C)(C)O[C@@]2(C/C=C(/C)C(=O)O)C4=O)C3=O"
  ASSAY_TARGET: "SNB-75 CNS"
  NUMERIC_RESULT: 3.28
- COMPOUND: "COCC1CCCN1c1ccc(C=N/C(C#N)=C(\\N)C#N)cc1 (stereo not given)"
  ASSAY_TARGET: "SNB-75 CNS"
  NUMERIC_RESULT: 58.1
- COMPOUND: "CC(=O)OCC1OC(n2cc(F)c(=O)[nH]c2=O)C(NC(=O)N(CCCl)N=O)C(OC(C)=O)C1OC(C)=O (stereo not given)"
  ASSAY_TARGET: "SNB-75 CNS"
  NUMERIC_RESULT: 78.3
- COMPOUND: "O=C(c1ccccc1)c1c(CC(O)c2ccccn2)n(C(=O)c2ccccc2)c2ccccc12 (stereo not given)"
  ASSAY_TARGET: "SNB-75 CNS"
  NUMERIC_RESULT: 43.3

We now examine a further compound.
API: value(readout= TGI, system= SNB-75 CNS, query= C/C(=N\NC(=S)N1CCCCC1)c1ccccn1 ) 6.8
